Listed below: mortality at 2500 ppm values for each entry.
- System: Myzus persicae
- experimentalDetails: Green peach aphid (Myzus persicae) systemic artificial diet test
- Assay type: in vivo
- cond: 72 h, read-out: mortality in comparison with untreated controls (aphid mortality)
- Text: For evaluating control of green peach aphid (Myzus persicae) through systemic means the test unit consisted of 96-well-microtiter plates containing liquid artificial diet under an artificial membrane. The compounds were formulated using a solution containing 75% v/v water and 25% v/v DMSO. […] After application, 5-8 adult aphids were placed on the artificial membrane inside the microtiter plate wells. […] Aphid mortality and fecundity was then visually assessed.
valueKind: mortality at 2500 ppm

>>> df
                                   molecule  recordedresult
0  CCn1c([O-])c(-c2cc(Cl)cc(Cl)c2)c(=O)[n+]2c1COC2c1ccc(Cl)nc1 (centres unmarked) [Compound C-44]           > 75%
1  CC(C)[n+]1c([O-])c(-c2ccccc2)c(=O)n2c1CCC2c1ccc(Cl)nc1 (centres unmarked) [Compound C-3]           > 75%
2  C[n+]1c([O-])c(-c2ccccc2)c(=O)n2c1CCC2c1ccc(Cl)nc1 (centres unmarked) [Compound C-1]           > 75%
3  C[n+]1c([O-])c(-c2ccccc2)c(=O)n2c1CCCC2c1ccc(Cl)nc1 (centres unmarked) [Compound C-8]           > 75%
4  C[n+]1c([O-])c(-c2ccccc2)c(=O)n2c1CCC2c1cnc(Cl)s1 (centres unmarked) [Compound C-6]           > 75%
5  CCn1c([O-])c(-c2cccc(C(F)(F)F)c2)c(=O)[n+]2c1COC2c1ccc(Cl)nc1 (centres unmarked) [Compound C-32]           > 75%
6  CC[n+]1c([O-])c(-c2ccccc2)c(=O)n2c1CCC2c1ccc(Cl)nc1 (centres unmarked) [Compound C-2]           > 75%
7  CC[n+]1c([O-])c(-c2ccccc2)c(=O)n2c1CCCC2c1ccc(Cl)nc1 (centres unmarked) [Compound C-9]           > 75%

The reported measurements were obtained from patent US11019820B2.
